System: NCI-H226 lung
Assay text: NCI-60 one-dose screen, 48 h
Recorded conditions: 10 µM unless noted
Procedure: Growth inhibition of the NCI-H226 human Non-Small Cell Lung tumor cell line is measured as a screen for anti-cancer activity. Cells are grown in 96 well plates and exposed to the test compound for 48 hours. Compounds are tested at a single concentration, which is 10^-5 M for most compounds. The reported endpoint is percent growth (GI% or GIPRCNT), where numbers from 0 - 100% represent growth inhibition, and numbers from -100% - 0 represent cell death. […]
Compounds without any hit were thinned out: in the full panel of roughly 83,000, 20% have a hit. Calls of active or inactive are those of the source. How the source made its calls: active means growth percent below 10; inactive means the rest. Where a SMILES comes first, the peptide text is derived from it. The star is where a group is joined. Trt = c1ccc(C(c2ccccc2)(c2ccccc2)*)cc1; Cbz = O=C(OCc1ccccc1)*
Classes used: 1.0 for active, 0.0 for inactive

[[record]]
compound = "CC1OC2CC(=O)OC2C2=C1C(=O)c1c(O)cccc1C2=O (stereo unspecified)"
answer_label = 1.0

[[record]]
compound = "CN=C(N)N/N=C(\\C)c1ccc2c(c1)Cc1cc(/C(C)=N/NC(N)=NC)ccc1-2"
answer_label = 1.0

[[record]]
compound = "O=C(/C=C/C=C/c1ccccc1)c1ccco1"
answer_label = 0.0

[[record]]
compound = "CC(=O)C(=Cc1ccc(C=C(C(C)=O)C(C)=O)cc1)C(C)=O"
answer_label = 1.0

[[record]]
compound = "C=C(Cl)C(=NC(C)(C)C)Nc1ccccc1C"
answer_label = 0.0

[[record]]
compound = "C=CCOc1ccc(N=NC(C#N)C#N)cc1"
answer_label = 0.0

[[record]]
compound = "CCN1/C(=C\\c2cc[n+](CC)c3ccccc23)C=Cc2ccccc21"
answer_label = 0.0

[[record]]
compound = "COC(=O)C(CSC(c1ccccc1)(c1ccccc1)c1ccccc1)NC(=O)C(CC(N)=O)NC(=O)OCc1ccccc1 (stereo not drawn) (Cbz-Asn-Cys(Trt)-OMe; configuration not given here)"
answer_label = 0.0

[[record]]
compound = "NC(=S)N/N=C\\c1nccc2c(C(F)(F)C(F)(F)C(F)(F)F)cccc12"
answer_label = 1.0

[[record]]
compound = "CC1OC(OC2C(OC3CCC4(C)C(CCC5(C)C4CC=C4C6CC(C)(C)CCC6(CO)C(O)CC45C)C3(C)C)OC(C(=O)O)C(OC3OC(COC4OC(CO)C(O)C(O)C4O)C(O)C(O)C3O)C2O)C(O)C(O)C1O (stereo unspecified)"
answer_label = 1.0

[[record]]
compound = "NC(N)=N/N=C/c1ccc([N+](=O)[O-])o1"
answer_label = 0.0

[[record]]
compound = "Cc1ccnc2c1ccc1c(C)ccnc12"
answer_label = 0.0

[[record]]
compound = "N#CSCC(=O)c1ccc(Cl)cc1"
answer_label = 0.0

[[record]]
compound = "COc1ccc2nc3cc(Cl)ccc3c(NCCNc3c4ccc(Cl)cc4nc4ccc(OC)cc34)c2c1"
answer_label = 1.0

[[record]]
compound = "Oc1c(Br)cc(Cl)cc1C(c1cc(Cl)cc(Br)c1O)C(Cl)(Cl)Cl"
answer_label = 0.0

[[record]]
compound = "O=[N+]([O-])c1ccc(N=Nc2ccc(O)cc2O)cc1"
answer_label = 0.0

[[record]]
compound = "CCCCCCCCCCCCCCCCOP(=O)([O-])OCC[N+](C)(C)C"
answer_label = 0.0

[[record]]
compound = "NC(=S)N/N=C/c1ccc(Cl)s1"
answer_label = 0.0

[[record]]
compound = "COc1cc(/C=C(/C)C[N+](=O)[O-])ccc1O"
answer_label = 0.0

[[record]]
compound = "CCCCCC(CCCCC)C(=O)O"
answer_label = 0.0

[[record]]
compound = "O=[N+]([O-])c1ccc2c(N=Nc3ccc4ccccc4c3O)c(O)cc(S(=O)(=O)O)c2c1"
answer_label = 0.0

[[record]]
compound = "CCOC(=O)c1c(C)[nH]c(CO)c1C"
answer_label = 0.0

[[record]]
compound = "CC(=O)ON=C1C=CC(=C(C#N)c2ccccc2)C=C1"
answer_label = 0.0

[[record]]
compound = "O=C(O)c1ccc2c3c(ncnc13)-c1ccccc1C2=O"
answer_label = 0.0

[[record]]
compound = "O=C1NC(=O)/C(=C/C=C/c2ccccc2)S1"
answer_label = 0.0

[[record]]
compound = "O=Nc1ccccc1N=O"
answer_label = 0.0

[[record]]
compound = "Nc1nc(N)c2c(ccc3c2ccn3Cc2cccc([N+](=O)[O-])c2)n1"
answer_label = 1.0

[[record]]
compound = "c1ccc2c(c1)Nc1cc3ccccc3cc1N2"
answer_label = 0.0

[[record]]
compound = "Oc1c(Cl)c2ccccc2c2ccccc12"
answer_label = 0.0

[[record]]
compound = "N#Cc1ccc([N+](=O)[O-])o1"
answer_label = 0.0

[[record]]
compound = "CN(C)c1ccc(N=Nc2cccc3ccccc23)cc1"
answer_label = 0.0

[[record]]
compound = "CCN(CC)CC(C)(C)C(=O)/C=C/c1ccc(Cl)c(Cl)c1"
answer_label = 1.0

[[record]]
compound = "Cc1ccc(N=C=C(c2ccccc2)c2ccccc2)cc1"
answer_label = 0.0

[[record]]
compound = "Cc1ccc2nc(C[n+]3ccc4ccccc4c3)ccc2c1"
answer_label = 0.0

[[record]]
compound = "Cc1ccc2nc(-[n+]3cc4ccccc4cc3C)ccc2c1"
answer_label = 0.0

[[record]]
compound = "Cc1ccnc(NC(c2ccccc2)c2ccc3cccnc3c2O)c1 (stereo unspecified)"
answer_label = 0.0

[[record]]
compound = "CNC(=O)N/N=C/c1ccc([N+](=O)[O-])o1"
answer_label = 0.0

[[record]]
compound = "Cc1ccc2c(ccc3c[n+]4c5ccccc5ccc4n32)c1"
answer_label = 1.0

[[record]]
compound = "Cc1ccc(C(=Nc2ccccc2)N=P(c2ccccc2)(c2ccccc2)c2ccccc2)cc1"
answer_label = 1.0

[[record]]
compound = "CN(C)CCOc1ccc2c(c1)C(=O)/C(=C\\c1ncc([N+](=O)[O-])n1C)C2"
answer_label = 1.0

[[record]]
compound = "O=C1c2ccccc2C(=O)c2sc(Nc3ccc(Cl)cc3)nc21"
answer_label = 1.0

